assay-target: T1, human pro-myostatin (human, UniProt O14793 24-375, biotinylated (in the SPR assay))
T1 construct: Disulfide-linked homodimer; also called proGDF8 (human)
assay-notes: SPR Biacore 8K, biotin-antigen captured
Recorded measurements of koff, one per entry
property: koff (s⁻¹)

- Ab102 (antibody, human IgG4 S228P, kappa, V domains shown) VH: EVQLVESGGGLVQPGGSLRLSCAASGFTFTSYGMSWVRQAPGKGLELVASITGSGGETYYPDSVKGRFTISRDNAKNSLYLQMNSLRAEDTAVYYCARDLLVRFLEWSHYYGMDVWGQGTTVTVSS VL: DIVMTQSPLSLPVTPGEPASISCRSSQSLLHSSGHNFLHWYLQKPGQSPQLLIYETSNRAPGIPDRFSGSGSGTDFTLKISRVEAEDVGVYYCMQATQFPRPFGGGTKVEIKR: 0.000376
- Ab129 (antibody, human IgG4 S228P, kappa, V domains shown) VH: QVQLVQSGAEVKKPGASVKVSCKVSGFNYPRSAIHWVRQAPGKGLEWMGGINPSGEATIYAQKFQGRVTMTEDTSTDTAYMELSSLKSEDTAVYYCARDSSPQWLVTAGVYFYGMDVWGQGTTVTVSS VL: DIQMTQSPSSVSASVGDRVTITCRASQSISNWLAWYQQKPGKAPKLLIYHASTLQSGVPSRFSGSGSGTDFTLTISSLQPEDFANYYCQQYSSTPWTFGGGTKVEIKR: 0.000307
- Ab140 (antibody, human IgG4 S228P, kappa, V domains shown) VH: EVQLVESGGGLVQPGGSLRLSCAASGFTFSSYGMSWVRQAPGKGLELVASFTGSGGTYYPDSVKGRFTISRDNAKNSLYLQMNSLRAEDTAVYYCARDNLIRFLEWSHYYGMDVWGQGTTVTVSS VL: DIVMTQSPLSLPVTPGEPASISCRSSQSLLHSSGHNFLHWYLQKPGQSPQLLIYEVSNRESGVPDRFSGSGSGTDFTLKISRVEAEDVGVYYCQQQTQYPPTFGGGTKVEIKR: 0.000711
